Notes on IC50 obtained with UniProtKB P22518.
Sequence (P22518 whole entry): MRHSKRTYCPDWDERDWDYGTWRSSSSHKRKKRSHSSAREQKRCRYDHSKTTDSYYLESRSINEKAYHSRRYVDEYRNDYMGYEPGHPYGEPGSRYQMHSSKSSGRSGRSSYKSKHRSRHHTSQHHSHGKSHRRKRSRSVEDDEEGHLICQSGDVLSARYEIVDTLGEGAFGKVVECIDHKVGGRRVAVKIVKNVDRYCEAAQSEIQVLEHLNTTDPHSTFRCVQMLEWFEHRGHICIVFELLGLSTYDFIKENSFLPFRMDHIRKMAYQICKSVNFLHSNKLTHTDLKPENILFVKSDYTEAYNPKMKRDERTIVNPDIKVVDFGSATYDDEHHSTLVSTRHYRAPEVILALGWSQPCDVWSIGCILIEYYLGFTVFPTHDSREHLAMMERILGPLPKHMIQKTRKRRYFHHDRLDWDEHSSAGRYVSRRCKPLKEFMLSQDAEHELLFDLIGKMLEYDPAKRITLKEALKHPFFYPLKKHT

Consider the following illustrative entries.
NC(=O)N/N=C/c1c(O)ccc2ccccc12 [Compound 3c, 2-Hydroxynaphthaldehyde Semicarbazone]    0.29 µM
NC(=O)NN=Cc1ccc(Cl)cc1    > 10 µM
NC(=O)NN=Cc1ccc(Br)cc1    > 10 µM

Then there is this molecule:
Task item: Name the recorded IC50 of the item `Cc1ccc(C=NNC(N)=O)cc1` in your answer.
Reply: > 10 µM

----------
Assay system AURKB (Homo sapiens); read-out recorded as IC50.

The following compounds have reported results that may help.
Cc1ccc(C=NNC(N)=O)cc1    > 10 µM
NC(=O)NN=Cc1ccc(Br)cc1    > 10 µM
NC(=O)NN=Cc1ccc(Cl)c(Cl)c1    > 10 µM

Task item: Give IC50; test system AURKB (Homo sapiens); compound NC(=O)N/N=C/c1c(O)ccc2ccccc12 [Compound 3c, 2-Hydroxynaphthaldehyde Semicarbazone]
Reply: 5.1 µM
